System: von Hippel-Lindau disease tumor suppressor/Epidermal growth factor receptor (Homo sapiens), P00533+P40337 [L858R,T790M]
Assay text: Protac activity at VHL/[…] cells assessed as induction of EGFR degradation at 100 nM incubated for 24 hrs by Western blot analysis relative to control
Format: cell-based
Below, each entry is listed with its recorded Activity.

Solved entries (count: 3):
- Compound structure: "COc1cc(N(C)CCN(C)C)c(NC(=O)/C=C/CN(C)CCN(C)C(=O)CCCCCC(=O)N[C@H](C(=O)N2C[C@H](O)C[C@H]2C(=O)NCc2ccc(-c3scnc3C)cc2)C(C)(C)C)cc1Nc1nccc(-c2cn(C)c3ccccc23)n1"
  Outcome measure: "Activity"
  Value measured: "< 20%"
- Compound structure: "C=CC(=O)Nc1cc(Nc2nccc(-c3cn(C)c4ccccc34)n2)c(OC)cc1N(CCCCCCC(=O)N[C@H](C(=O)N1C[C@H](O)C[C@H]1C(=O)NCc1ccc(-c2scnc2C)cc1)C(C)(C)C)CCN(C)C"
  Outcome measure: "Activity"
  Value measured: "< 28%"
- Compound structure: "C=CC(=O)Nc1cc(Nc2nccc(-c3cn(C)c4ccccc34)n2)c(OC)cc1N(CCCCCCC(=O)NCCCCCCC(=O)N[C@H](C(=O)N1C[C@H](O)C[C@H]1C(=O)NCc1ccc(-c2scnc2C)cc1)C(C)(C)C)CCN(C)C"
  Outcome measure: "Activity"
  Value measured: "< 20%"

Query (compound): COc1cc(N(C)CCN(C)C)c(NC(=O)/C=C/CN(C)CCN(C)C(=O)CCCCCCC(=O)N[C@H](C(=O)N2C[C@H](O)C[C@H]2C(=O)NCc2ccc(-c3scnc3C)cc2)C(C)(C)C)cc1Nc1nccc(-c2cn(C)c3ccccc23)n1 ; field requested: Activity
< 20%

Where do these numbers come from? They come from ChEMBL document CHEMBL5154782.
